compounds and their reported pIC50
# test.target: recombinant S. aureus FabI enzyme (Staphylococcus aureus (strain MRSA252))
# method.notes: FabI inhibition, fluorescence based assay
# measurement.conditions: in vitro
pIC50: −log10 of the molar value.
observation.type: pIC50

{"compound": "O=C1CCc2cc(/C=C/C(=O)N3CCCC(COc4ccc(F)cc4)C3)cnc2N1 (stereo not drawn)", "recorded.measurement": 5.89}
{"compound": "O=C1CCc2cc(/C=C/C(=O)N3CCC3)cnc2N1", "recorded.measurement": 4.96}
{"compound": "NC(=O)C1Cc2cc(/C=C/C(=O)N3CCC(COc4ccc(F)cc4)CC3)cnc2NC1=O (stereo not drawn)", "recorded.measurement": 7.11}
{"compound": "O=C1CCc2cc(/C=C/C(=O)N3CCC(Oc4cccnc4)C3)cnc2N1 (stereo not drawn)", "recorded.measurement": 6.03}
{"compound": "O=C1CCc2cc(/C=C/C(=O)N3CC(OCc4ccccc4)C3)cnc2N1", "recorded.measurement": 7.30}
{"compound": "Nc1ccc(/C=C/C(=O)N2CC(OCc3ccncc3)C2)cn1", "recorded.measurement": 5.74}

---

# test.target: recombinant S. aureus FabI enzyme (Staphylococcus aureus (strain MRSA252))
# method.notes: FabI inhibition, fluorescence based assay
# measurement.conditions: in vitro

{"compound": "O=C1CCc2cc(/C=C/C(=O)N3CC(OCc4nccs4)C3)cnc2N1", "IC50": "57 nM"}
{"compound": "O=C1CCc2cc(/C=C/C(=O)N3CCC(O)(c4ccccc4)CC3)cnc2N1", "IC50": "340 nM"}
{"compound": "O=C1CCc2cc(/C=C/C(=O)N3CCCCC3)cnc2N1", "IC50": "9900 nM"}
{"compound": "NC(=O)c1cc2cc(/C=C/C(=O)N3CCC(COc4ccc(F)cc4)CC3)cnc2[nH]c1=O", "IC50": "550 nM"}
{"compound": "CCCC1CCN(C(=O)/C=C/c2cnc3c(c2)CCC(=O)N3)CC1", "IC50": "41 nM"}
{"compound": "O=C1CCc2cc(/C=C/C(=O)N3CCC(Oc4ccccc4)C3)cnc2N1 (stereo not drawn)", "IC50": "120 nM"}
{"compound": "O=C1CCc2cc(/C=C/C(=O)N3CCCC3c3ccccc3)cnc2N1 (stereo not drawn)", "IC50": "7100 nM"}
{"compound": "O=C1CCc2cc(/C=C/C(=O)N3CC(OCc4cccs4)C3)cnc2N1", "IC50": "13 nM"}
{"compound": "O=C1CCc2cc(/C=C/C(=O)N3CCCC[C@@H]3c3nc4ccccc4o3)cnc2N1", "IC50": "1800 nM"}
{"compound": "COC(=O)C1Cc2cc(/C=C/C(=O)N3CCC(COc4ccc(F)cc4)CC3)cnc2NC1=O (stereo not drawn)", "IC50": "60 nM"}
{"compound": "CCCCCOC1CN(C(=O)/C=C/c2cnc3c(c2)CCC(=O)N3)C1", "IC50": "25 nM"}
{"compound": "Cc1nc(C2CN(C(=O)/C=C/c3cnc4c(c3)CCC(=O)N4)C2)no1", "IC50": "150 nM"}
{"compound": "Cc1nc(C2CCCCN2C(=O)/C=C/c2cnc3c(c2)CCC(=O)N3)no1 (stereo not drawn)", "IC50": "4100 nM"}
{"compound": "O=C1Nc2ncc(/C=C/C(=O)N3CCC(COc4ccc(F)cc4)CC3)cc2CC1CO (stereo not drawn)", "IC50": "81 nM"}
{"compound": "C=C(C)COC1CN(C(=O)/C=C/c2cnc3c(c2)CCC(=O)N3)C1", "IC50": "170 nM"}
{"compound": "O=C1CCc2cc(/C=C/C(=O)N3CC(Oc4ccccc4)C3)cnc2N1", "IC50": "1000 nM"}
{"compound": "O=C1CCc2cc(/C=C/C(=O)N3CCCC3)cnc2N1", "IC50": "5500 nM"}
{"compound": "O=C1CCc2cc(/C=C/C(=O)N3CCC(CCO)CC3)cnc2N1", "IC50": "5300 nM"}

The origin of these recorded values is patent US8846711B2.
